For each of the molecules below, state its residual activity.
# assaySystem: GSK3B (human) (UniProt P49841)
# Sequence (P49841 whole entry, looked up): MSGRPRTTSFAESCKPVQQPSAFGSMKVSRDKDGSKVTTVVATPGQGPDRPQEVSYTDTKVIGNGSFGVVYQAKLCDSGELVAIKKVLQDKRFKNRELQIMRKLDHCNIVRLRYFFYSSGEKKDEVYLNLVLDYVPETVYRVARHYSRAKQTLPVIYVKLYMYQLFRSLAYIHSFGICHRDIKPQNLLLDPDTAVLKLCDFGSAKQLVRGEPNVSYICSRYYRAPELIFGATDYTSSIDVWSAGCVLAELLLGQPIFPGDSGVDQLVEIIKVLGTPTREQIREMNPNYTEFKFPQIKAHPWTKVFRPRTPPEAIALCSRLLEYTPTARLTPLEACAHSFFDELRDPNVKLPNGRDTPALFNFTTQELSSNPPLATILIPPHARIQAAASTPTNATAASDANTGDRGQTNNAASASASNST
# test: radiometric filter-binding kinase assay, Kinase HotSpot
# assayConditions: compound 0.5 µM; ATP 10 µM
The answer is to be given in %; state only the numeric part.

What does the data say about its residual activity? Entry: `Nc1ccc2ncnc(NCCc3ccc(Oc4ccccc4)cc3)c2c1` 102

What does the data say about its residual activity? Entry: `CC[n+]1c(/C=C/N(C)c2ccccc2)n(-c2ccccc2)c2ccc(-c3nc4ccccc4s3)cc21` 105

What does the data say about its residual activity? Entry: `COc1ccc(COc2ccc(Cc3cnc(N)nc3N)cc2OC)cc1` 97.8

----------
For each of the compounds below, state its residual activity.
# assaySystem: UniProtKB P07947
# Sequence (P07947 whole entry, looked up): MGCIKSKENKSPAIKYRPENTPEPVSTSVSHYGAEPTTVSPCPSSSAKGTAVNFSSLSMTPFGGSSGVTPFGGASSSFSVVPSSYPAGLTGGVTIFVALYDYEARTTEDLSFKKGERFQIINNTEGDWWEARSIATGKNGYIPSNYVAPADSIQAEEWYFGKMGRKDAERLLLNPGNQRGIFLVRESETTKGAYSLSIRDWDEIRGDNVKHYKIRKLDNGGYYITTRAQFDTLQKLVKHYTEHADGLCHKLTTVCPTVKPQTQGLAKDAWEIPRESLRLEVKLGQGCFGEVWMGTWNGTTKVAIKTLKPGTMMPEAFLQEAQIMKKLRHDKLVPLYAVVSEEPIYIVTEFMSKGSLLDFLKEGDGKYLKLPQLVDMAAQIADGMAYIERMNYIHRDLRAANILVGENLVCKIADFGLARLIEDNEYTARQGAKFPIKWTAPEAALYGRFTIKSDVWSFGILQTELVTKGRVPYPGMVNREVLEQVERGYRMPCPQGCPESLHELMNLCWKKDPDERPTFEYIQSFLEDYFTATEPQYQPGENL
# test: radiometric filter-binding kinase assay, Kinase HotSpot
# assayConditions: compound 0.5 µM; ATP 10 µM
Answer format: value, then unit.

What does the data say about its residual activity? Entry: `CC[n+]1c(/C=C/N(C)c2ccccc2)n(-c2ccccc2)c2ccc(-c3nc4ccccc4s3)cc21` 94.9%

What does the data say about its residual activity? Entry: `CCCC(=O)Oc1ccc2[nH]c(C(=O)c3cc4ccccc4[nH]3)cc2c1` 84.4%

What does the data say about its residual activity? Entry: `Oc1cccc(-c2nc(N3CCOCC3)c3oc4ncccc4c3n2)c1` 94.3%

What does the data say about its residual activity? Entry: `N#CC(C#N)=C(N)/C(C#N)=C/c1ccc(O)cc1` 100%

What does the data say about its residual activity? Entry: `CC(=O)c1ccc(N2CCOCC2)cc1O` 100%

What does the data say about its residual activity? Entry: `Nc1ncnc2c1c(-c1ccc(Oc3ccccc3)cc1)cn2C1CCCC1` 0.657%

What does the data say about its residual activity? Entry: `Nc1cccc(-c2cc3c(Oc4cccc(O)c4)ncnc3[nH]2)c1` 6.05%

What does the data say about its residual activity? Entry: `Nc1ncnc2[nH]nc(Nc3ccc(F)cc3)c12` 92.9%

What does the data say about its residual activity? Entry: `Nc1ccc2ncnc(NCCc3ccc(Oc4ccccc4)cc3)c2c1` 112%

What does the data say about its residual activity? Entry: `CCOC(=O)c1c(C)[nH]c(/C=C2\C(=O)Nc3ccccc32)c1C` 68.3%

What does the data say about its residual activity? Entry: CO[C@H]1CC2CC[C@@H](C)[C@@](O)(O2)C(=O)C(=O)N2CCCC[C@H]2C(=O)OC([C@H](C)C[C@@H]2CC[C@@H](O)[C@H](OC)C2)CC(=O)[C@H](C)/C=C(\C)[C@@H](O)[C@@H](OC)C(=O)[C@H](C)C[C@H](C)/C=C/C=C/C=C/1C (stereo not given in full) 101%

What does the data say about its residual activity? Entry: `O=C1NC(=O)c2c1c1c3ccccc3n3c1c1c2c2ccccc2n1C1CCC3O1` 31.9%

What does the data say about its residual activity? Entry: `COc1cc2ncnc(Nc3cccc(Cl)c3)c2cc1OC` 59.9%

What does the data say about its residual activity? Entry: `CCN(CC)CCNC(=O)c1c(C)[nH]c(/C=C2\C(=O)Nc3ccc(Cl)cc32)c1C` 5.29%

What does the data say about its residual activity? Entry: `CCC(=O)Nc1ccc2ncnc(Nc3cccc(Br)c3)c2c1` 87%

----------
# assaySystem: HCK (human) (UniProt P08631)
# Sequence (P08631 whole entry, looked up): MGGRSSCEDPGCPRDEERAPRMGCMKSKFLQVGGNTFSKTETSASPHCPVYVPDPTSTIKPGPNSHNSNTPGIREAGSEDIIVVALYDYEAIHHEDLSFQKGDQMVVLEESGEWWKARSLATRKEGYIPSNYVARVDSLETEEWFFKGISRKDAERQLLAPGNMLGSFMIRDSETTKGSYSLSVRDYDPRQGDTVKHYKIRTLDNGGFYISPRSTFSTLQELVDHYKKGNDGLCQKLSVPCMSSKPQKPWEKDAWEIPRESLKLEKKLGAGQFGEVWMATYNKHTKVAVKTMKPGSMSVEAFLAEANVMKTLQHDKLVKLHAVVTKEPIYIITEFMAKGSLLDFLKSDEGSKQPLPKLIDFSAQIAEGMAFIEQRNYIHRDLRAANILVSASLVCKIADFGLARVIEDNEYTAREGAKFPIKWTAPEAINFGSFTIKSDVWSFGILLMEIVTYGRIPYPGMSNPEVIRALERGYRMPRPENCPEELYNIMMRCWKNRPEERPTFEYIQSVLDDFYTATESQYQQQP
# test: radiometric filter-binding kinase assay, Kinase HotSpot
# assayConditions: compound 0.5 µM; ATP 10 µM
For each of the compounds below, state its residual activity.

What does the data say about its residual activity? Entry: `Oc1cccc(-c2nc(N3CCOCC3)c3oc4ncccc4c3n2)c1` 91.9%

What does the data say about its residual activity? Entry: `CNC(=O)c1cc(Oc2ccc(NC(=O)Nc3ccc(Cl)c(C(F)(F)F)c3)cc2)ccn1` 90.3%

What does the data say about its residual activity? Entry: `Nc1ncnc2[nH]nc(Nc3ccc(F)cc3)c12` 90.7%

What does the data say about its residual activity? Entry: `CC#CC(=O)Nc1cc2c(Nc3ccc(F)c(Cl)c3)ncnc2cn1` 92.2%

----------
For each of the molecules below, state its residual activity.
# assaySystem: RPS6KA4 KD2 (human) (UniProt O75676)
# Sequence (O75676 whole entry, looked up): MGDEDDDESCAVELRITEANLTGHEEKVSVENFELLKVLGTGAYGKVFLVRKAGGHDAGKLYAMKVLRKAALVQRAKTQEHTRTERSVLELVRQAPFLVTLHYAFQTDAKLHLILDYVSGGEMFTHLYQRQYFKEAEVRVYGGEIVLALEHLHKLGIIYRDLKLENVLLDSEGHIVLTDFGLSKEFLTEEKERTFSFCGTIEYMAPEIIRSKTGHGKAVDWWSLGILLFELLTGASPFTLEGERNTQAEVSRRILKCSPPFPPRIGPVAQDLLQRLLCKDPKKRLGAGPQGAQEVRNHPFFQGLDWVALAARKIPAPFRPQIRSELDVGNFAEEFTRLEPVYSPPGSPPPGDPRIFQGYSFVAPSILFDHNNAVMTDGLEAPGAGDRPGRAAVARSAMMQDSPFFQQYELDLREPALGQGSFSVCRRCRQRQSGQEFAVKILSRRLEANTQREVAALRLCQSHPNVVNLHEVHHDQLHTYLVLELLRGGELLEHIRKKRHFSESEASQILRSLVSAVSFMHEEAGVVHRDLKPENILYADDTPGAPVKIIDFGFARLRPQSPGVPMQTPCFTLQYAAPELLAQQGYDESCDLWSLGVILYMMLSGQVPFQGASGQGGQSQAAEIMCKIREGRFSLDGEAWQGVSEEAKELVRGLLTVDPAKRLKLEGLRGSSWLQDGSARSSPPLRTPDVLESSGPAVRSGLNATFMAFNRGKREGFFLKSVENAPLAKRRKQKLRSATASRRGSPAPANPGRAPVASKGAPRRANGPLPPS
# test: radiometric filter-binding kinase assay, Kinase HotSpot
# assayConditions: compound 0.5 µM; ATP 10 µM
The answer is to be given in %; state only the numeric part.

What does the data say about its residual activity? Entry: `CCN(CC)CCNC(=O)c1c(C)[nH]c(/C=C2\C(=O)Nc3ccc(Cl)cc32)c1C` 59

What does the data say about its residual activity? Entry: `N#C/C(=C(/N)Sc1ccc(N)cc1)c1ccccc1C(F)(F)F` 112

What does the data say about its residual activity? Entry: `O=C1NC(=O)c2c1c1c3ccccc3n3c1c1c2c2ccccc2n1C1CCC3O1` 12.4

What does the data say about its residual activity? Entry: `Nc1cccc(-c2cc3c(Oc4cccc(O)c4)ncnc3[nH]2)c1` 103

What does the data say about its residual activity? Entry: `Oc1cccc(-c2nc(N3CCOCC3)c3oc4ncccc4c3n2)c1` 104

What does the data say about its residual activity? Entry: `Nc1ncnc2c1c(-c1ccc(Oc3ccccc3)cc1)cn2C1CCCC1` 105

What does the data say about its residual activity? Entry: `CCN(CC)C(=O)c1ccc(Nc2nc(OCC3CCCCC3)c3nc[nH]c3n2)cc1` 79.8

What does the data say about its residual activity? Entry: `CCN(CC)CCNC(=O)c1c(C)[nH]c(/C=C2\C(=O)Nc3ccc(F)cc32)c1C` 50.8

What does the data say about its residual activity? Entry: `O=C1NC(=O)/C(=C/c2ccc3c(c2)OC(F)(F)O3)S1` 108

----------
For each of the molecules below, state its residual activity.
# assaySystem: CDK2 CCNE1 (human) (UniProt P24941+P24864)
# Sequence (P24864 whole entry, looked up, other chains not shown): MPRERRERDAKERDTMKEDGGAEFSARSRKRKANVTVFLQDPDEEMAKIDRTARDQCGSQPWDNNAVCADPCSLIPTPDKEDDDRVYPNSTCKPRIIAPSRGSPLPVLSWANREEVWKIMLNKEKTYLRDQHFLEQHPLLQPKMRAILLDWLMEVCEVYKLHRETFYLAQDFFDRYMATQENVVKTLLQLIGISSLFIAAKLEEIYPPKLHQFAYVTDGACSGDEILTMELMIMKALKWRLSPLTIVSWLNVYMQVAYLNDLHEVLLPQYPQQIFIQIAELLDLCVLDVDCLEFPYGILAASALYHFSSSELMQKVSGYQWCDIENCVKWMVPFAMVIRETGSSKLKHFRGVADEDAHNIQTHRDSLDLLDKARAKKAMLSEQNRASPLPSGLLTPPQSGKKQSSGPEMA
# test: radiometric filter-binding kinase assay, Kinase HotSpot
# assayConditions: compound 0.5 µM; ATP 10 µM
The answer is to be given in %; state only the numeric part.

What does the data say about its residual activity? Entry: `Cc1ccc(Nc2nccc(N(C)c3ccc4c(C)n(C)nc4c3)n2)cc1S(N)(=O)=O` 96.4

What does the data say about its residual activity? Entry: `CCOC(=O)c1c(C)[nH]c(/C=C2\C(=O)Nc3ccccc32)c1C` 95.6

What does the data say about its residual activity? Entry: `CC(=O)c1ccc(N2CCOCC2)cc1O` 94.8

What does the data say about its residual activity? Entry: `Nc1ncnc2[nH]nc(Nc3ccc(F)cc3)c12` 90.3

What does the data say about its residual activity? Entry: `O=C1NC(=O)C(c2cn(CCCn3ccnc3)c3ccccc23)=C1Nc1ccccc1` 81.8

What does the data say about its residual activity? Entry: `c1ccc(-c2n[nH]c3c2oc2ccccc23)cc1` 95.6

What does the data say about its residual activity? Entry: `Nc1ccc2ncnc(NCCc3ccc(Oc4ccccc4)cc3)c2c1` 95

What does the data say about its residual activity? Entry: `O=C1Nc2ccc(Cl)cc2/C1=C/c1cc(Cl)c(O)c(Cl)c1` 90

What does the data say about its residual activity? Entry: `Cc1ccc(S(=O)(=O)/C=C/C#N)cc1` 89.2

----------
For each of the compounds below, state its residual activity.
# assaySystem: MAP3K8 (human) (UniProt P41279)
# Sequence (P41279 whole entry, looked up): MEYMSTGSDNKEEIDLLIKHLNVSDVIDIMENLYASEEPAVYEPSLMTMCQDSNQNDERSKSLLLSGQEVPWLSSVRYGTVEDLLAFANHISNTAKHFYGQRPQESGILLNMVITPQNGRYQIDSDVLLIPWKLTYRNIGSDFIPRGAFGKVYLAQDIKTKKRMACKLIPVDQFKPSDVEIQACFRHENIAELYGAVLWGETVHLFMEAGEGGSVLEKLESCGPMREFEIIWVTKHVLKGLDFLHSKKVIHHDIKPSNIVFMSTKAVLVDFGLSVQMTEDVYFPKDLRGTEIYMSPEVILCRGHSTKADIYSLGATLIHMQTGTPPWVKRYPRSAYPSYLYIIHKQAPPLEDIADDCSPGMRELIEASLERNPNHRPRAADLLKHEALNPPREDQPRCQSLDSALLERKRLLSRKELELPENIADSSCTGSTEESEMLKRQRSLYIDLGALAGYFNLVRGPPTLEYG
# test: radiometric filter-binding kinase assay, Kinase HotSpot
# assayConditions: compound 0.5 µM; ATP 10 µM
The answer is to be given in %; state only the numeric part.

What does the data say about its residual activity? Entry: `COc1cc2ncnc(Nc3cccc(Cl)c3)c2cc1OC` 104

What does the data say about its residual activity? Entry: `CC[n+]1c(/C=C/N(C)c2ccccc2)n(-c2ccccc2)c2ccc(-c3nc4ccccc4s3)cc21` 92

What does the data say about its residual activity? Entry: `Cc1ccc(Nc2nccc(N(C)c3ccc4c(C)n(C)nc4c3)n2)cc1S(N)(=O)=O` 95.2

What does the data say about its residual activity? Entry: `O=C1NC(=O)/C(=C/c2ccc3c(c2)OC(F)(F)O3)S1` 93

What does the data say about its residual activity? Entry: `COc1ccc(COc2ccc(Cc3cnc(N)nc3N)cc2OC)cc1` 98.4

What does the data say about its residual activity? Entry: `c1ccc(-c2n[nH]cc2-c2ccnc3ccccc23)nc1` 91.1

What does the data say about its residual activity? Entry: `CC#CC(=O)Nc1cc2c(Nc3ccc(F)c(Cl)c3)ncnc2cn1` 94.2

What does the data say about its residual activity? Entry: `Nc1ncnc2[nH]nc(Nc3ccc(F)cc3)c12` 99.7

What does the data say about its residual activity? Entry: `Cc1[nH]c(/C=C2\C(=O)Nc3ccc(S(=O)(=O)N(C)c4cccc(Cl)c4)cc32)c(C)c1C(=O)N1CCN(C)CC1` 82.9

What does the data say about its residual activity? Entry: `c1ccc(-c2n[nH]c3c2oc2ccccc23)cc1` 105

What does the data say about its residual activity? Entry: `COc1ccc2c(c[n+](C)c3c4cc5c(cc4ccc23)OCO5)c1OC` 91.3

What does the data say about its residual activity? Entry: `Oc1cccc(-c2nc(N3CCOCC3)c3oc4ncccc4c3n2)c1` 99.2

What does the data say about its residual activity? Entry: `CCCC(=O)Oc1ccc2[nH]c(C(=O)c3cc4ccccc4[nH]3)cc2c1` 97.6
